# System: SNB-19
# Measurement description: NCI tumour cell line growth inhibition, 48 h
Calls of active or inactive are those of the source. No stated cut-off is given here; in the data, active = GI50 up to about 1.1 µM and inactive = higher.
Please state which outcome applies, choosing from True = active, False = inactive

Recorded results for 4 compounds are shown here.
[[record]]
compound = "COc1cc(OC)c([C@@H]2OC(=O)C3C2C(=O)O[C@H]3c2cc(OC)c(OC)cc2OC)cc1OC (some centres not stated)"
target = "SNB-19"
label = "False"

[[record]]
compound = "Cc1cn(C2CC(O)C(COC(=O)NCCC(F)(F)C(F)(F)C(F)(F)C(F)(F)F)O2)c(=O)[nH]c1=O (configuration not stated)"
target = "SNB-19"
label = "False"

[[record]]
compound = "COc1ccc(NC(=O)/C(=C/c2ccccc2)C(C)=O)cc1"
target = "SNB-19"
label = "False"

[[record]]
compound = "OCC1OC(n2cnc3c(Cl)nc(Nc4ccccc4)nc32)CC1O (configuration not stated)"
target = "SNB-19"
label = "False"


input: What outcome does the record of this test show for C1CCC(CC2CCC(NC3=NCCO3)CC2)CC1 (configuration not stated) ?
output: False

input: Now give it for NS(=O)(=O)c1ccc(NC2(C(=O)O)CCCC2)cc1 too.
output: False

input: Try the compound O=C1c2c(O)cccc2C(C(=O)CCCCC(=O)C2c3cccc(O)c3C(=O)c3c(O)cccc32)c2cccc(O)c21
output: True

----------
# Test system: RPMI-8226
# Measurement description: NCI tumour cell line growth inhibition, 48 h
Activity calls are given as the source filed them. Rule as the data show it: active = GI50 up to about 1.1 µM and inactive = higher.
What GI50 was measured for each of the following?

These solved cases illustrate the format of a correct answer.
[[record]]
molecule = "O=c1c(Cc2ccccc2)c(-c2ccccc2)[nH]n1C1=NCCN1"
assay_readout = "GI50"
result = "47 µM (inactive)"

[[record]]
molecule = "Clc1ccc(C2=Cc3nc2c(-c2ccccc2)c2ccc([nH]2)c(-c2ccccc2)c2nc(c(-c4ccccc4)c4ccc([nH]4)c3-c3ccccc3)C=C2)cc1"
assay_readout = "GI50"
result = "> 62.5 µM (inactive)"

[[record]]
molecule = "CN(C)CC1(C)CC/C(=C\\c2ccc(Cl)cc2)C1=O (configuration not stated)"
assay_readout = "GI50"
result = "19.1 µM (inactive)"

[[record]]
molecule = "COc1ccccc1N1C(=O)/C(=C\\c2cc(OC)c(OC)c(OC)c2)S(=O)(=O)C1c1ccccc1 (configuration not stated)"
assay_readout = "GI50"
result = "20.5 µM (inactive)"

[[record]]
molecule = "C=CCN1C(=O)/C(=C/c2ccc(C)cc2)N=C1SC/C=C/C"
assay_readout = "GI50"
result = "14.5 µM (inactive)"


Go through the items and report each one's GI50.
1. N#CN1CC[C@@H]2CC3(CCC2C1)OCCO3 (some centres not stated)
2. Nc1ccc(-c2ncc3cc(-c4cccc(-c5cc6cnc(-c7ccc(N)cc7)nc6c6ccccc56)c4)c4ccccc4c3n2)cc1
3. Cc1nc2ccccc2nc1CC(=O)C(=O)Nc1ccc(Cl)cc1Cl
4. Cc1cccc(-n2c(N)c(-c3nc4ccccc4[nH]3)sc2=S)c1
5. CC1CN(C)c2ccccc2N=C1NN (configuration not stated)
6. Cc1nccn1S(=O)(=O)c1ccc(Cl)cc1
7. O=[N+]([O-])c1ccc2sc(/C=N/c3ccccn3)cc2c1
8. O=C(CN1CCCCC1)Nc1ccc2sc3ccccc3c(=O)c2n1

output:
1. > 100 µM (inactive)
2. > 100 µM (inactive)
3. > 100 µM (inactive)
4. 20.7 µM (inactive)
5. > 100 µM (inactive)
6. 48.6 µM (inactive)
7. 22.6 µM (inactive)
8. 13.1 µM (inactive)

Quick batch: GI50 for everything below.
1. O=C1CCCN1C(=O)CS(=O)(=O)c1ccccc1
2. O=C1Nc2c(Cl)cccc2/C1=N/Nc1ccccc1[N+](=O)[O-]
3. O=c1c(Nc2ccccc2)cn(CCOc2ccc(Cl)cc2)c(=O)n1CCOc1ccc(Cl)cc1
4. Nc1ncnc2c1nnn2C1C=CC(CP(=O)(O)O)C1 (configuration not stated)
5. Cc1nc(N)nc(N)c1N1CCN(Cc2ccccc2)CC1
6. Cc1cc(C)c(C#N)c(SC(=S)NC(=O)c2ccc(Cl)cc2)n1
7. Nn1nnc2ccccc21
8. CC1=C(C(=O)Nc2ccccc2C)C(c2ccccc2C)C(C(=O)Nc2ccccc2C)=C(C)N1

output:
1: > 100 µM (inactive); 2: 25 µM (inactive); 3: > 100 µM (inactive); 4: > 100 µM (inactive); 5: > 39 µM (inactive); 6: > 100 µM (inactive); 7: > 100 µM (inactive); 8: 24 µM (inactive)

input: I have this molecule here, O=C(CC(=O)c1ccc([N+](=O)[O-])cc1)C(=O)Nc1nccs1 , and I need its recorded GI50.
output: > 100 µM (inactive)
